Value source: patent US10478425B2

Target: Human AMPK α2β2γ1 (Homo sapiens, UniProt O43741+P54646)
Construct: The full length cDNAs of human AMPK β2 (NM_005399.3) and human AMPK α2 (NM_006252.3); The full length cDNAs of human AMPK β2 (NM_005399.3); the full length cDNA of human AMPK γ1 (NM_002733.3) had been inserted into pET28b(+); 6×His (N); made in house; host or cells: Escherichia coli BL21 CodonPlus (DE3)-RIL
Sequence (P54646 whole entry): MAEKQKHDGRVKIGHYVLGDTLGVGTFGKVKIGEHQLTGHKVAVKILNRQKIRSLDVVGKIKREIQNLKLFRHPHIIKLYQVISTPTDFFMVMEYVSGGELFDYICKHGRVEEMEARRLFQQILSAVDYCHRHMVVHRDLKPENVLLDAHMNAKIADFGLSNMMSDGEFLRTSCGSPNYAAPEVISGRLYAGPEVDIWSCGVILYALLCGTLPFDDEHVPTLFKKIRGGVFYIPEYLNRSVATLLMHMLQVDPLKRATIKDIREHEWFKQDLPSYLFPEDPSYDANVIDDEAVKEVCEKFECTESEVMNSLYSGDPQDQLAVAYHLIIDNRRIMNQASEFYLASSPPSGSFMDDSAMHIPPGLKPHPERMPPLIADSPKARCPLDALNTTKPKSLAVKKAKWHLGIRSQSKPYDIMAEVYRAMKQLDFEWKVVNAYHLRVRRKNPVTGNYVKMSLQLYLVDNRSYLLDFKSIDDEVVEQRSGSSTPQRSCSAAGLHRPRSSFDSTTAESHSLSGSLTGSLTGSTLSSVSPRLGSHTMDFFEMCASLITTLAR
Sequence (O43741 whole entry): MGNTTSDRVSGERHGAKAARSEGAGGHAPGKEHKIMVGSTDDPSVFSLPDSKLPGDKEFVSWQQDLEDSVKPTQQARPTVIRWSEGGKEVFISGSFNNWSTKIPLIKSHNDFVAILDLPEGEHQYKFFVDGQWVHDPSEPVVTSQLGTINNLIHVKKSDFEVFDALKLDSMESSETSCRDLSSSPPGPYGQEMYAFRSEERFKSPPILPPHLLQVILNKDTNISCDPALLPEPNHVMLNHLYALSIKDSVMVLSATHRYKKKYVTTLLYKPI
Sequence (P54619 whole entry partner): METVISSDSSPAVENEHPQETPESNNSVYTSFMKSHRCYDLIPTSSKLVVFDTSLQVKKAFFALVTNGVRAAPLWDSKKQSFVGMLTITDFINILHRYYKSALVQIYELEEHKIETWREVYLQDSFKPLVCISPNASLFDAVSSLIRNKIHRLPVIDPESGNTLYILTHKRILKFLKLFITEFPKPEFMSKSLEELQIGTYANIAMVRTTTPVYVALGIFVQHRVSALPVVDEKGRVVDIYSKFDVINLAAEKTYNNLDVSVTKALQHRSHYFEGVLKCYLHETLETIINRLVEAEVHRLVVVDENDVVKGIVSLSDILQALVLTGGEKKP
Assay: Test Example 2: activation of phosphorylated human AMPK α2β2γ1 (mobility-shift kinase assay, FL-Peptide 7)
Type: biochemical
Conditions: maximum rate of increase in activity within the measurement range, control = 100%; read-out: Emax
Listed below: Emax values for each entry.
Could you give me the number in %? Just the number is fine.

>  <molecule>
O[C@@H]1CO[C@H]2[C@@H]1OC[C@H]2Oc1cc2nc(-c3ccc(-c4ccc(OC5CNOC5)cc4)cc3)c(F)cc2[nH]1 (stereo partly drawn) [Compound I-2-27]

>  <Emax, %>
375

$$$$
>  <molecule>
CC(C)(O)/C=C/c1ccc(-c2nc3cc(O[C@@H]4CO[C@H]5[C@@H]4OC[C@H]5O)[nH]c3cc2F)cc1 [Compound I-2-14]

>  <Emax, %>
507

$$$$
>  <molecule>
O[C@@H]1CO[C@H]2[C@@H]1OC[C@H]2Oc1cc2nc(-c3ccc(-c4ccc(OCCC(F)F)cc4)cc3)c(F)cc2[nH]1 [Compound I-2-63]

>  <Emax, %>
520

$$$$

Would you mind telling me what Emax value was observed for CC(C)(O)/C=C/c1ccc(-c2ccc(-c3nc4cc(O[C@@H]5CO[C@H]6[C@@H]5OC[C@H]6O)[nH]c4cc3F)cc2)cc1 [Compound I-2-15] ?
505

# iterate: CN1CCN(c2ccc(-c3ccc(-c4nc5cc(O[C@@H]6CO[C@H]7[C@@H]6OC[C@H]7O)[nH]c5cc4F)cc3)cc2)C1=O [Compound I-2-53]
638

# iterate: CO[C@@H]1CO[C@H]2[C@@H]1OC[C@H]2Oc1cc2nc(-c3ccc(-c4ccc(N=S(C)(C)=O)cc4)cc3)c(F)cc2[nH]1 [Compound I-1-07]
189
